Reference source for all entries: ChEMBL document CHEMBL1149129

# Test system: KBALB cell line
# Assay procedure: In vitro cell cytotoxicity was determined against KBALB cell line
# Assay type: functional
# Assay context: Mus musculus
Please go through the items and note down their CC50.

QUERY: Quick check: CC50 on KBALB cell line, item COc1no[n+]([O-])c1S(=O)(=O)c1ccccc1 ?
RESULT: 480 nM

QUERY: Then this compound: O=c1ccn([C@H]2C[C@H](Oc3no[n+]([O-])c3S(=O)(=O)c3ccccc3)[C@@H](CO)O2)c(=O)[nH]1
RESULT: 790 nM

QUERY: Then this compound: O=S(=O)(c1ccccc1)c1no[n+]([O-])c1S(=O)(=O)c1ccccc1
RESULT: 520 nM

QUERY: Then this compound: O=c1[nH]c(=O)n([C@H]2C[C@H](O)[C@@H](CO)O2)cc1F
RESULT: 95000 nM

QUERY: Then this compound: O=[N+]([O-])O[C@H]1CO[C@H]2[C@@H]1OC[C@H]2O[N+](=O)[O-] [ISOSORBIDE DINITRATE]
RESULT: 97000 nM

QUERY: Then this compound: Cc1cn([C@H]2C[C@H](O)[C@@H](CO)O2)c(=O)[nH]c1=O
RESULT: 970000 nM

QUERY: Then this compound: Cc1cn([C@H]2C[C@H](O)[C@@H](COc3no[n+]([O-])c3S(=O)(=O)c3ccccc3)O2)c(=O)[nH]c1=O
RESULT: 2800 nM

QUERY: Then this compound: O=c1[nH]c(=O)n([C@H]2C[C@H](Oc3no[n+]([O-])c3S(=O)(=O)c3ccccc3)[C@@H](CO)O2)cc1I
RESULT: 380 nM

QUERY: Then this compound: O=c1[nH]c(=O)n([C@H]2C[C@H](Oc3no[n+]([O-])c3S(=O)(=O)c3ccccc3)[C@@H](CO)O2)cc1C(F)(F)F
RESULT: 3200 nM

QUERY: Then this compound: O=c1ccn([C@H]2C[C@H](O)[C@@H](COc3no[n+]([O-])c3S(=O)(=O)c3ccccc3)O2)c(=O)[nH]1
RESULT: 4600 nM

QUERY: Then this compound: O=c1[nH]c(=O)n([C@H]2C[C@H](Oc3no[n+]([O-])c3S(=O)(=O)c3ccccc3)[C@@H](CO)O2)cc1F
RESULT: 2000 nM

QUERY: Then this compound: O=c1[nH]c(=O)n([C@H]2C[C@H](O)[C@@H](CO)O2)cc1I
RESULT: 0.06 nM

QUERY: Then this compound: Cc1cn([C@H]2C[C@H](Oc3no[n+]([O-])c3S(=O)(=O)c3ccccc3)[C@@H](CO)O2)c(=O)[nH]c1=O
RESULT: 560 nM

QUERY: Then this compound: O=c1[nH]c(=O)n([C@H]2C[C@H](O)[C@@H](COc3no[n+]([O-])c3S(=O)(=O)c3ccccc3)O2)cc1I
RESULT: 920 nM

QUERY: Then this compound: O=c1[nH]c(=O)n([C@H]2C[C@H](O)[C@@H](COc3no[n+]([O-])c3S(=O)(=O)c3ccccc3)O2)cc1F
RESULT: 48 nM
